Tested on: Pichia kudriavzevii
Assay: Fungicidal activity against Candida krusei by micro dilution method
Type: functional

compound	MFC
CCCCCC1C(CCC)=NOC1CC[C@H](O)CCCCCCCC(=O)OC (some centres not stated)	> 256 µg/mL
CCCC1=NOC(CCCCCCCCC(=O)OC)C1 (configuration not stated)	> 256 µg/mL
CCCc1cc(CCCCCCCCC(=O)O)on1	> 256 µg/mL
CCC(C)n1ncn(-c2ccc(N3CCN(c4ccc(OCC5COC(Cn6cncn6)(c6ccc(Cl)cc6Cl)O5)cc4)CC3)cc2)c1=O (configuration not stated) [ITRACONAZOLE]	0.12 µg/mL
CCCCCC[C@@H](O)CC1C(CCC)=NOC1CCCCCCCC(=O)OC (some centres not stated)	128 µg/mL
CCCCCCCCC1C(CCC)=NOC1CCCCCCCC(=O)OC (configuration not stated)	> 256 µg/mL
OC(Cn1cncn1)(Cn1cncn1)c1ccc(F)cc1F [FLUCONAZOLE]	> 256 µg/mL
